Test: total protein half-life in vivo (active degradation + dilution); higher = more stable protein
Conditions: wild type E. coli NCM3722; growth: P-lim chemostat; doubling time 12 h
Examples of sequences with documented total protein half-life in vivo follow.
ENDPOINT_NAME: total protein half-life in vivo

MNNMNVIIADDHPIVLFGIRKSLEQIEWVNVVGEFEDSTALINNLPKLDAHVLITDLSMPGDKYGDGITLIKYIKRHFPSLSIIVLTMNNNPAILSAVLDLDIEGIVLKQGAPTDLPKALAALQKGKKFTPESVSRLLEKISAGGYGDKRLSPKESEVLRLFAEGFLVTEIAKKLNRSIKTISSQKKSAMMKLGVENDIALLNYLSSVTLSPADKD [P0DMC7]: 5.56 h
MKKVLIAALIAGFSLSATAAETIRFATEASYPPFESIDANNQIVGFDVDLAQALCKEIDATCTFSNQAFDSLIPSLKFRRVEAVMAGMDITPEREKQVLFTTPYYDNSALFVGQQGKYTSVDQLKGKKVGVQNGTTHQKFIMDKHPEITTVPYDSYQNAKLDLQNGRIDGVFGDTAVVTEWLKDNPKLAAVGDKVTDKDYFGTGLGIAVRQGNTELQQKLNTALEKVKKDGTYETIYNKWFQK: 12.2 h
MKLKNTLLASALLSAMAFSVNAATELTPEQAAAVKPFDRVVVTGRFNAIGEAVKAVSRRADKEGAASFYVVDTSDFGNSGNWRVVADLYKADAEKAEETSNRVINGVVELPKDQAVLIEPFDTVTVQGFYRSQPEVNDAITKAAKAKGAYSFYIVRQIDANQGGNQRITAFIYKKDAKKRIVQSPDVIPADSEAGRAALAAGGEAAKKVEIPGVATTASPSSEVGRFFETQSSKGGRYTVTLPDGTKVEELNKATAAMMVPFDSIKFSGNYGNMTEVSYQVAKRAAKKGAKYYHITRQWQERGNNLTVSADLYK: 11.1 h
MIKKIGVLTSGGDAPGMNAAIRGVVRSALTEGLEVMGIYDGYLGLYEDRMVQLDRYSVSDMINRGGTFLGSARFPEFRDENIRAVAIENLKKRGIDALVVIGGDGSYMGAMRLTEMGFPCIGLPGTIDNDIKGTDYTIGFFTALSTVVEAIDRLRDTSSSHQRISVVEVMGRYCGDLTLAAAIAGGCEFVVVPEVEFSREDLVNEIKAGIAKGKKHAIVAITEHMCDVDELAHFIEKETGRETRATVLGHIQRGGSPVPYDRILASRMGAYAIDLLLAGYGGRCVGIQNEQLVHHDIIDAIENMKRPFKGDWLDCAKKLY [P0A796]: 11.7 h
MTTKKADYIWFNGEMVRWEDAKVHVMSHALHYGTSVFEGIRCYDSHKGPVVFRHREHMQRLHDSAKIYRFPVSQSIDELMEACRDVIRKNNLTSAYIRPLIFVGDVGMGVNPPAGYSTDVIIAAFPWGAYLGAEALEQGIDAMVSSWNRAAPNTIPTAAKAGGNYLSSLLVGSEARRHGYQEGIALDVNGYISEGAGENLFEVKDGVLFTPPFTSSALPGITRDAIIKLAKELGIEVREQVLSRESLYLADEVFMSGTAAEITPVRSVDGIQVGEGRCGPVTKRIQQAFFGLFTGETEDKWGWLDQVNQ [P0AB80]: 10.9 h
MPSTPEEKKKVLTRVRRIRGQIDALERSLEGDAECRAILQQIAAVRGAANGLMAEVLESHIRETFDRNDCYSREVSQSVDDTIELVRAYLK [P0AAP3]: 8.57 h
MSTLGHQYDNSLVSNAFGFLRLPMNFQPYDSDADWVITGVPFDMATSGRAGGRHGPAAIRQVSTNLAWEHNRFPWNFDMRERLNVVDCGDLVYAFGDAREMSEKLQAHAEKLLAAGKRMLSFGGDHFVTLPLLRAHAKHFGKMALVHFDAHTDTYANGCEFDHGTMFYTAPKEGLIDPNHSVQIGIRTEFDKDNGFTVLDACQVNDRSVDDVIAQVKQIVGDMPVYLTFDIDCLDPAFAPGTGTPVIGGLTSDRAIKLVRGLKDLNIVGMDVVEVAPAYDQSEITALAAATLALEMLYIQAAKKGE: 12.2 h
MKTMLAAYLPGNSTVDLREVAVPTPGINQVLIKMKSSGICGSDVHYIYHQHRATAAAPDKPLYQGFINGHEPCGQIVAMGQGCRHFKEGDRVLVYHISGCGFCPNCRRGFPISCTGEGKAAYGWQRDGGHAEYLLAEEKDLILLPDALSYEDGAFISCGVGTAYEGILRGEVSGSDNVLVVGLGPVGMMAMMLAKGRGAKRIIGVDMLPERLAMAKQLGVMDHGYLATTEGLPQIIAELTHGGADVALDCSGNAAGRLLALQSTADWGRVVYIGETGKVEFEVSADLMHHQRRIIGSWVTSLFHMEKCAHDLTDWKLWPRNAITHRFSLEQAGDAYALMASGKCGKVVINFPD: 8.54 h
MSQPLLSVNGLMMRFGGLLAVNNVNLELYPQEIVSLIGPNGAGKTTVFNCLTGFYKPTGGTILLRDQHLEGLPGQQIARMGVVRTFQHVRLFREMTVIENLLVAQHQQLKTGLFSGLLKTPSFRRAQSEALDRAATWLERIGLLEHANRQASNLAYGDQRRLEIARCMVTQPEILMLDEPAAGLNPKETKELDELIAELRNHHNTTILLIEHDMKLVMGISDRIYVVNQGTPLANGTPEQIRNNPDVIRAYLGEA [P0A9S7]: 12.9 h
MNDIAHNLAQVRDKISAAATRCGRSPEEITLLAVSKTKPASAIAEAIDAGQRQFGENYVQEGVDKIRHFQELGVTGLEWHFIGPLQSNKSRLVAEHFDWCHTIDRLRIATRLNDQRPAELPPLNVLIQINISDENSKSGIQLAELDELAAAVAELPRLRLRGLMAIPAPESEYVRQFEVARQMAVAFAGLKTRYPHIDTLSLGMSDDMEAAIAAGSTMVRIGTAIFGARDYSKK: 11.1 h
MKLTIIRLEKFSDQDRIDLQKIWPEYSPSSLQVDDNHRIYAARFNERLLAAVRVTLSGTEGALDSLRVREVTRRRGVGQYLLEEVLRNNPGVSCWWMADAGVEDRGVMTAFMQALGFTAQQGGWEKC: 12.9 h
